Listing of entries alongside the reported inhibition at 1200 g/ha.
# Tested on: Digitaria ciliaris
# assayName: Test Example 3: herbicidal effect test by soil application in upland field
# Type: in vivo
# measurementSetup: Digitaria ciliaris, 120 g per 10 ares, sprayed one day after sowing, 14 days after application, read-out: weed inhibition rate
measurementLabel: inhibition at 1200 g/ha

molecule	measurementLabel	measured
CC(C)[C@]12C[C@@H](OCc3ccccc3I)[C@](C)(C[C@@H]1I)O2	inhibition at 1200 g/ha	≥ 80%
CC(C)[C@@]12C[C@H](OCc3c(F)cccc3Cl)[C@@](C)(C[C@H]1Br)O2	inhibition at 1200 g/ha	≥ 80%
CC(C)C12CC(OCc3ccc(F)cc3)C(C)(CC1Br)O2 (stereo not drawn)	inhibition at 1200 g/ha	≥ 80%

====

# System: Echinochloa crus-galli var. formosensis at the three-leaf stage
# assayName: Comparative Example: herbicidal effect test by application during growth period of paddy rice (three-leaf stage, Table 7)
# Format: in vivo
# measurementSetup: 504 h, active ingredient 7.5 g per 10 ares, emulsifiable concentrate applied by dropper to flooded pots, 21 days after chemical application, triplicate, read-out: Weed inhibition rate (%)
Listing of entries alongside the reported inhibition at 75 g/ha.
measurementLabel: inhibition at 75 g/ha

molecule	measurementLabel	measured
Cc1ccccc1CO[C@@H]1C[C@]2(C(C)C)O[C@@]1(C)C[C@@H]2F	inhibition at 75 g/ha	94%
Cc1ccccc1CO[C@@H]1C[C@]2(C(C)C)O[C@@]1(C)CC2C (some centres unmarked)	inhibition at 75 g/ha	99%
CC(C)[C@]12C[C@@H](OCc3ccccc3F)[C@](C)(CC1C)O2 (some centres unmarked)	inhibition at 75 g/ha	100%
CC(C)[C@]12C[C@@H](OCc3ccccc3F)[C@](C)(C[C@@H]1I)O2	inhibition at 75 g/ha	93%
CC(C)[C@]12C[C@@H](OCc3c(F)cccc3F)[C@](C)(CC1C)O2 (some centres unmarked)	inhibition at 75 g/ha	100%
CCO[C@H]1C[C@]2(C)O[C@@]1(C(C)C)C[C@H]2OCc1ccccc1F	inhibition at 75 g/ha	93%
CC(C)[C@]12C[C@@H](OCc3c(F)cccc3F)[C@](C)(C[C@@H]1F)O2	inhibition at 75 g/ha	100%
Cc1ccccc1COC1CC2(C(C)C)CCC1(C)O2 (centres unmarked)	inhibition at 75 g/ha	73%

====

# System: Echinochloa crus-galli var. formosensis at the three-leaf stage
# assayName: Comparative Example: herbicidal effect test by application during growth period of paddy rice (three-leaf stage, Table 7)
# Type: in vivo
# measurementSetup: 504 h, active ingredient 7.5 g per 10 ares, emulsifiable concentrate applied by dropper to flooded pots, 21 days after chemical application, triplicate, read-out: Weed inhibition rate (%)
# Experimental: As an example, the herbicidal effect on Echinochloa crus-galli var. formosensis at the three-leaf stage was confirmed by the following method, and the results are specifically shown in Table 7 as a comparative example. Wagner pots with an area of […] were filled with paddy soil, followed by addition of water and incorporation of chemical fertilizer (N:P:K = 16:16:16), after which puddling was performed. […]

compound	inhibition at 75 g/ha / %
CC(C)[C@]12C=C[C@](C)(O1)C(OCc1ccccc1F)C2 (mixture of isomers)	82
CC(C)[C@]12C[C@@H](OCc3ccccc3F)[C@](C)(C[C@@H]1F)O2	100
C=C1C[C@]2(C)O[C@@]1(C(C)C)C[C@H]2OCc1ccccc1F	80
CC(C)[C@]12C[C@@H](OCc3ccccc3)[C@](C)(C[C@@H]1Br)O2	80
CC(C)[C@]12C[C@@H](OCc3c(F)cccc3F)[C@](C)(C[C@@H]1Br)O2	93
CC(C)[C@]12C[C@@H](OCc3ccccc3F)[C@](C)(C[C@@H]1C)O2	100
C=CCO[C@H]1C[C@]2(C)O[C@@]1(C(C)C)C[C@H]2OCc1ccccc1F	82
CCC1C[C@]2(C)O[C@@]1(C(C)C)C[C@H]2OCc1ccccc1F (stereo partly drawn)	100
CC(C)[C@]12C[C@@H](OCc3ccccc3F)[C@](C)(C[C@@H]1Br)O2	88
